# Tested on: MS2 coat protein
# Protocol notes: apparent KD of MS2 coat protein; designed switch direction (-1 OFF switch, 1 ON switch): -1; higher = weaker reporter binding
# Test context: Eterna round: R95; input ligand: none
Assign apparent KD of MS2 coat protein to each entry below.
Numbers only, in µM.

[
  {
    "Sequence data": "AUCGUGGCUCAGGAUAUCAGCCCUGUGGAGUUCUGAGAAGGGAGCACAUGAGGAUCACCCAUGUGAAAGGGUAC [Esdienar] (puzzle: Exclusion 6)",
    "Quantity unit": "µM",
    "apparent KD of MS2 coat protein": 0.0408
  },
  {
    "Sequence data": "AGUAGUAGUAUCCGAUCCUACAUGAGGAUCACCCAUGUGGCUAGACGUGCACGCGAUGCUCGUCAGACUACCAGAUG [salish99_TOv1_r3_038] (puzzle: Sensor v3, turn-off variant 1)",
    "Quantity unit": "µM",
    "apparent KD of MS2 coat protein": 0.506
  },
  {
    "Sequence data": "GGUGAGCGAGGAUAUACAUGAGGAUCACCCAUGUGAGAGAAUAAAGUGAGGAAGAAAAGUAGAAGGCGCGAACG [Mat - Exclusion 3 - Mod of Salish D47] (puzzle: Exclusion 3)",
    "Quantity unit": "µM",
    "apparent KD of MS2 coat protein": 0.0119
  }
]

Kindly consider the entry below.
// returns reported apparent KD of MS2 coat protein for input GAUGAGGUAGGAUAUACGAGAAGAUAGGGUAGAUAUAUAACACAUGAGGAUCACCCAUGUAGAAGGACCAGUAG [Mat - Exclusion 2 - Mod of my Tesla design - D71] (puzzle: Exclusion 2)
0.0317

###

# System: MS2 coat protein
# Protocol notes: apparent KD of MS2 coat protein; designed switch direction (-1 OFF switch, 1 ON switch): 1; higher = weaker reporter binding
# Test context: input ligand: none
Decision: apparent KD of MS2 coat protein >= 100 nM yields class 1, all other cases yield class 0.

[
  {
    "Sequence data": "AAAAGAAACAUGUACCUGAGUACAUGAAAACAUGAGGAUCACCCAUGUAACAAGCUGGGUGCUCGUCUUAUAAGAAA [JL pocket 1] (Eterna round: R96, puzzle: Sensor for hsa-mir-208a)",
    "Test target": "MS2 coat protein",
    "Class": "class 0"
  },
  {
    "Sequence data": "ACAUGAGACAGAGGAUAUGUUGUACCUACAUGUGACAUGAGGAUCACCCAUGUGGUAAGUAUGAUACAGAAGGCUGAGAUAUGU [Equivalance 64 - Jieux - Same State NG 2] (Eterna round: R96, puzzle: Same State NG 2)",
    "Test target": "MS2 coat protein",
    "Class": "class 0"
  },
  {
    "Sequence data": "UGGUACAUGCGAGGAUAUGGGUUGAUGACAUGAGGAUCACCCAUGUUAAAUAUGCCGAGAGGCACCUAGAAGGCGCAUGUACCU [MOD2 of JL SSNG1 3.99] (Eterna round: R96, puzzle: Same State NG 2)",
    "Test target": "MS2 coat protein",
    "Class": "class 0"
  },
  {
    "Sequence data": "GGUAGGUUACUACCAAUACAUGAGGAUCACCCAUGUUAUCAUGAGGAUAUGGUACCUAUUUGGUACCAGAAGGCAUGUAUAAUU [Fiskers NG3ss - 19] (Eterna round: R96, puzzle: Same State NG 3)",
    "Test target": "MS2 coat protein",
    "Class": "class 0"
  },
  {
    "Sequence data": "UUGAAUAAUUAAGGAUAUCGAGUACAUAUGUUAAACAUGAGGAUCACCCAUGUGGGUUGCGGUAUCGAGAAGGUAAAAGACAAG [Mat - Same State NG 2 - JL mod - D59] (Eterna round: R96, puzzle: Same State NG 2)",
    "Test target": "MS2 coat protein",
    "Class": "class 0"
  }
]

Determine whether this sequence has apparent KD of MS2 coat protein no lower than 100 nM: CUGAGCGAUCUAGGAUAUCACGUCGAAUAGACGUGAGAAGGAGAUCAUAACAUGAGGAUCACCCAUGUAUUACAUGAAGCUCAG [SSNG1/6-A1] (Eterna round: R96, puzzle: Same State NG 1)
class 0

Test whether the sequence UUAAUGAAGUAAGGAUAUACAUGAGGAUCUCUCGUAGAAGGUACUAUACAUGAGGAUCACCCAUGUGCCGGUCCGUAGACUGGA [JL SSNG1 1.04] (Eterna round: R96, puzzle: Same State NG 1) records apparent KD of MS2 coat protein of 100 nM or higher.
class 1

Item GCGAAAGCAGGAGGAUAUGCAGAGGAUCACCCUGUAGAAGGCCACAGAGGAGGAUAUGCAGAGGAUCACCCUGUAGAAGGCCAC [pwkr ssNG DX.17] (Eterna round: R96, puzzle: Same State NG 1) with apparent KD of MS2 coat protein of 100 nM or above?
class 1

Does the reported apparent KD of MS2 coat protein for GGAGCCAAGGCAGGAUAUUCAUAUUAAAUACAUGAGGAUCACCCAUGUUAGGCCAGAAGGCCUUGGGAGAAGGGCCAUGGCUCG [Xeonanis - 13 mod20] (Eterna round: R96, puzzle: Same State NG 2) fall at or above the 100 nM mark?
class 0

Entry GAGCCAGUCCGAGGAUAUUCAACAUGAGGAUCACCCAUGUAGGCUCAGAAAAGAAAAGAGCCUUGGGAGAAGGCGGACUGGCUC [Xeonanisa<<7] (Eterna round: R96, puzzle: Same State NG 2) : is its apparent KD of MS2 coat protein no less than 100 nM?
class 0
